Test system: human fibrosarcoma cell lines (HT1080 cells)
test name: Calculation of IC50 value, cell proliferation inhibitory activity by XTT assay, HT1080 cells (Test Example 2)
Assay type: cell-based
measurement context: read-out: Cell proliferation inhibitory activity (IC50 value calculated from XTT assay), concentration showing 50% inhibitory activity, human fibrosarcoma cell lines (HT1080); HT1080 cells, 72 hours culture with test substance, XTT assay
readout name: IC50 (nM)
The reply should contain only the number, in nM.

[Q] // returns reported IC50 for input CCn1nnc2cc(COC(=O)Nc3sc(-c4ccc(C)cc4OC)nc3C)ccc21
[A] 1.64
